- testedOn: human Tissue Factor Pathway Inhibitor-1α (TFPI-1α) (human), P10646
- Sequence (P10646 29-304): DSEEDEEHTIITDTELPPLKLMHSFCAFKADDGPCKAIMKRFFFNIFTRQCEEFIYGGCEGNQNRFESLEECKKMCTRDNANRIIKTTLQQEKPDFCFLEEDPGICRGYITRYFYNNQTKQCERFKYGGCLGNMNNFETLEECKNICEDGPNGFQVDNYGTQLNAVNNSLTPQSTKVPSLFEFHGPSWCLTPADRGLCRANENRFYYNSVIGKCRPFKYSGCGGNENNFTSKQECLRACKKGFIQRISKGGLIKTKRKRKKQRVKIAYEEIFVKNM
- experimentSummary: competition
- runParameters: modification not given
Entries and their IC50

**Query** If you can, please state the reported IC50 value of FDSKKNVFVFGYFERLRAKL [JBT0586] .
**Result** > 1.67 µM

**Query** If you can, please state the reported IC50 value of FQSKNNVFVHGYFERLRAKL [JBT0487] .
**Result** 0.04 µM

**Query** If you can, please state the reported IC50 value of FQSKKNVFVFGYFERDRAKL [JBT0597] .
**Result** > 5 µM

**Query** If you can, please state the reported IC50 value of FQLKKNVFVFGYFERLRAKL [JBT0603] .
**Result** > 5 µM

**Query** If you can, please state the reported IC50 value of AQSKGNVFVFGYFERLRAKL [JBT0497] .
**Result** 0.1 µM

**Query** If you can, please state the reported IC50 value of FQSKKNVFVFGYFERFRAKL [JBT0580] .
**Result** > 5 µM

Now for another entry.
**Query** If you can, please state the reported IC50 value of FQSKKNVFVFFYFERLRAKL [JBT0576] .
**Result** > 1.67 µM
